# assay_method_text: THP-1 cell cytotoxicity, dose response, cytotoxicity control for non-replicating M. tuberculosis project (AID 489025)
# Type: functional
Calls of active or inactive are those of the source.
reported_metric: CC50

-- ask Entry CCCCCn1c(=O)c2ccccc2n2c(CCl)nnc12 has what CC50?
-- reply 19.2 µM (active)

-- ask Quick one: Cc1cc([N+](=O)[O-])ccc1NC(=O)Nc1ccc(F)cc1F
-- reply 20.3 µM (active)

-- ask Also need Cc1noc2ncnc(Sc3ccc(Br)cc3)c12 , thanks.
-- reply > 40 µM (active)

-- ask And then CC(NCc1ccc(OCc2ccc(Cl)cc2)cc1)C(O)c1ccccc1 (centres undefined) , what is it?
-- reply 9.8 µM (active)

* * *

# system_tested: UniProtKB P41145
# Sequence (P41145 whole entry): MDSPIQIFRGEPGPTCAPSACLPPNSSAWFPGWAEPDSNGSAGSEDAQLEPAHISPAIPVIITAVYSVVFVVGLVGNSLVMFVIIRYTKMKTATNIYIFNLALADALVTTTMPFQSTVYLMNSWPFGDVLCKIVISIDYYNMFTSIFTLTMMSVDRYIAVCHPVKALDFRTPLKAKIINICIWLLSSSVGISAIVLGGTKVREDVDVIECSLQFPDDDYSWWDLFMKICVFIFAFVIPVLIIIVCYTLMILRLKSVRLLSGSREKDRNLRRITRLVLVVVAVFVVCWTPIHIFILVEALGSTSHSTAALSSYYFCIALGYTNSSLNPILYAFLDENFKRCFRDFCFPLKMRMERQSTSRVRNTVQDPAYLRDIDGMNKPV
# Assay type: functional
reported_metric: EC50

-- ask I am curious: what EC50 value has been reported for O=C(c1ccccn1)N(Cc1cccs1)C1(C(=O)NC2CCCCC2)CCCCC1 ?
-- reply < 0.5 µM

* * *

# system_tested: Cytochrome P450 2D6 (Homo sapiens);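 further: CYP2D6 member of a cytochrome P450 panel assay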
# Sequence (P10635 whole entry): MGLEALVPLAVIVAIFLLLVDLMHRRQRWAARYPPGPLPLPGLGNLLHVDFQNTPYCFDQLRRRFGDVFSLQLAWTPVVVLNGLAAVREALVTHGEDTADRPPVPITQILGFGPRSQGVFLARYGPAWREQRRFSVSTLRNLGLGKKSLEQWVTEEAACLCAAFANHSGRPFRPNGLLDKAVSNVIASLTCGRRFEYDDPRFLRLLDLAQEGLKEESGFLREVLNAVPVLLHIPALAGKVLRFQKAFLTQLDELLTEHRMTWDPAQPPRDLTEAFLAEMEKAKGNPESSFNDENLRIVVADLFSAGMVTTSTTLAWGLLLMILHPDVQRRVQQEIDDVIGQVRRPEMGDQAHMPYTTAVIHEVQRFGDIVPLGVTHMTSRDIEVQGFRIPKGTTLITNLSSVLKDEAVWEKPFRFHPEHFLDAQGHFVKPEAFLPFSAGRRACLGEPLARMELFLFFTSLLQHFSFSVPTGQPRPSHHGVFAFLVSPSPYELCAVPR
reported_metric: AC50

-- ask Request the reported AC50 associated with Cc1cc(O)c(C(C)C)cc1CN1CCCCC1
-- reply 3.98 µM (inconclusive)

-- ask Then what about the compound FC(F)(F)c1nc2ccccc2nc1N/N=C\c1ccccc1 ?
-- reply 14.1 µM (inconclusive)

-- ask Repeat for the following compound: COc1ccccc1CNc1ncnc2ccc(-c3cccc(NS(C)(=O)=O)c3)cc12
-- reply 20 µM (inconclusive)

-- ask Queued: O=C(Nc1ccccc1)C(Cc1ccccc1)NC(=O)C12CC3CC(CC(C3)C1)C2 (stereo not given)
-- reply 0.00794 µM (inconclusive)

-- ask C=CCSc1nnc2c(n1)OC(c1c(C)[nH]n(-c3ccccc3)c1=O)Nc1ccccc1-2 (stereo not given) ?
-- reply 0.158 µM (inconclusive)

* * *

# system_tested: UniProtKB P38532
# Sequence (P38532 whole entry): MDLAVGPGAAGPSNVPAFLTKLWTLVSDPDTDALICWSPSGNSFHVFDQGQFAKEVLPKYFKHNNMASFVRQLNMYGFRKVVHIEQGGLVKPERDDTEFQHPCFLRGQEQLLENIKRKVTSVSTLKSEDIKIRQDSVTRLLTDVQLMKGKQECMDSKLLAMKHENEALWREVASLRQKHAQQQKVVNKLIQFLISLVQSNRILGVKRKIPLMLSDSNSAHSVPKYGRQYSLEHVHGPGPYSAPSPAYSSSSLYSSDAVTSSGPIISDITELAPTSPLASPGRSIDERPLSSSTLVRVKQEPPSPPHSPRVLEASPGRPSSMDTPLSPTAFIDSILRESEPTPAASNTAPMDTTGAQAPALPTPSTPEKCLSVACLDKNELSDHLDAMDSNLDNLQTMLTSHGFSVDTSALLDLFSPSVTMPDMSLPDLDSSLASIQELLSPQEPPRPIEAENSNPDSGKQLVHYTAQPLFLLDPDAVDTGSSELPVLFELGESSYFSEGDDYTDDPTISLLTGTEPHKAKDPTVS
# assay_method_text: HSF1 potentiators in luciferase reporter cells, confirmation, cell-based, NIH3T3, luminescence, dose retest (AID 435004);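 further: stress induced by proteasome inhibitor MG132 added 30 min after compound; luciferase reporter driven by HSF1 response element in NIH3T3 cells; actives raise luminescence as potentiators of the MG132 stress response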
# Type: functional
Active and inactive are the calls of the source.
Write down the outcome that applies. Available outcomes: T = active, F = inactive

-- ask Answer briefly: the call reported for S=c1[nH]cc(-c2ccccc2)n1-c1ccccc1Cl in this assay.
-- reply F

-- ask Queued: Cc1noc2ncnc(Sc3ccc(Br)cc3)c12
-- reply T

-- ask Try this molecule next: Cc1ccc2c(CN3CCN(S(=O)(=O)/C=C/c4ccccc4)CC3)cc(=O)oc2c1
-- reply F

-- ask What would you report for Cc1oc(-c2ccccc2F)nc1CS(=O)(=O)CC(=O)NCCCN1CCN(C)CC1 ?
-- reply F

-- ask Then O=[N+]([O-])c1ccc(S(=O)(=O)N2CCSC2c2ccco2)cc1 (configuration not stated) ?
-- reply F

-- ask And for Cc1c(Cl)ccc2c1NC(=O)C21NC(CCC(N)=O)[C@H]2C(=O)N(c3ccc(Cl)cc3)C(=O)[C@H]21 (some centres not stated) ?
-- reply F

-- ask // next record CCOc1ccc(/C=N/NC(=O)C(C)N(c2ccc(OC)cc2)S(C)(=O)=O)cc1 (configuration not stated)
-- reply F

-- ask Do the same for Cc1cc2c(c(/C=C/C(=O)c3ccccc3)c1)OC1(C=C2)Oc2ccccc2C(=O)N1C (configuration not stated) please
-- reply T

-- ask Could you do the same for COCCCNc1nc2nonc2nc1N1CCN(Cc2cccc(C)c2)CC1 , please?
-- reply F

-- ask Next record, please: O=C(Nc1nccs1)c1cccc(N2C(=O)c3cccc4c([N+](=O)[O-])ccc(c34)C2=O)c1
-- reply T

-- ask Now this one: c1ccc(COc2ccccc2CNC2CCCC2)cc1
-- reply F

-- ask Now consider Cc1ccc(S(=O)(=O)N(CC(=O)NCc2ccco2)Cc2ccc(F)cc2)cc1 .
-- reply F
